src = the DeepSol protein solubility set

test: soluble on expression in E. coli; label from the status in PepcDB or PDB records
RESULT TYPE: soluble on expression in E. coli

{"MONOMER SEQUENCE": "MGSDKIHHHHHHMKESLRREYAPVKDLKPDDHIKMVQDIFSTITGKYDFLNHLLSFRRDVAWRRFAARKMHFSVTRRYLDVATGTADLALEVARRYPEVQVIGVDFVLEMLEKAVEKSARRDKIRDRVHFVQADALALPFADASFDVVGIAFGIRNIPGRLGALREFSRVLVDGGQVVVLEMQSPEQKMLRPLCTFYLRHVLPRLARRFTRNPAAYLYLADSILHFPSSDRFSGMMRDAGFADVRNYPLTLGITRLYVGRKGQ", "RESULT TYPE": "soluble on expression in E. coli", "REPORTED": "not soluble"}
{"MONOMER SEQUENCE": "MLIFRTSPMSRREKSLPIEPKYTKPQANGSSFPPIFTLEGSTPCKKTARKLIDPVVNSVDSLCYLARKIVKMQEEKKRQKSNSFLIDYLVGDNFITEFREQPAQASPAVDVEDPMVSLVLGCPFGAIGQERRMSQDFPFQRRSFDMVSNRTSTSESSSCSSTDNTYKNAGKFLSLQEYLEQNNLLPPSTMPFGENSGFHGYNPQMNVHNNSTRNGNVENREQRNNSTSPPRGNPPHPLCCCFCFGTASEFARLHTLPAPRKDDRGPWSDHCSKKRGRVVCPKLRSMVCGICGATGDNAHTTKHHLEAFGDD", "RESULT TYPE": "soluble on expression in E. coli", "REPORTED": "not soluble"}
{"MONOMER SEQUENCE": "MGSDKIHHHHHHMIIKTSFLIVIHAQYAKKVVGKKISIYFTIHSGIKIFVKMKTCARISCFLILAVCSFFDAAAQGNFLLWEITGNGLADTSYLFGTIHIRDKRVFNLGDSTYYAITHTKALYGELNLQDKSEMKQHAPELLMPSGTSLQAMLSAQDYKLVKKYCKKHIGVYALLINKIKPIYISAVVSEDLLKKEEKKPLDLYLQDYAARQGNEIGGIETFQEQLSVIDLLPLQEQADMLVEQIKNIDQEKILMEQMLQFYLNESLDSLEILVQEDTLSQEFNEAILDARNKVMLTRMETQMNREPTFFAVGAAHLAGEKGLVILLRKAGYTVRPVKRK", "RESULT TYPE": "soluble on expression in E. coli", "REPORTED": "not soluble"}
{"MONOMER SEQUENCE": "MGSDKIHHHHHHMARILIIRFSALGDVAMTIPVVHSLAVQYPQLEITVLSRAVWQPLFQGLPANVSFIGADLTGKHKGLWGLNTLYSELKAKHFDYVADFHHVLRTKYLCLRFRLANIPVASIYKGRVGKEKLVRRRHKVLENQKSSFRRYADVLEKLGFPVLLNFSSIYGDEKGNFAEIEPVTGAKDNLKWIGIAPFAKHMGKIYPIELQEQVVAHFAADPKVKVFLFGGGKSEQEVFDGWVAKYPTVVSMIGKLNMRTELNLMSHLDVMLSMDSANMHLASLVNIPVISVWGATHPYAGFMGWKQLPVNTVQFDLSCRPCSVYGQKPCWRGDYACLREIKPEQVIAKIEGIIN", "RESULT TYPE": "soluble on expression in E. coli", "REPORTED": "not soluble"}
